Biological target: human recombinant HDAC2 (Homo sapiens, UniProt Q92769)
Sequence (Q92769 whole entry): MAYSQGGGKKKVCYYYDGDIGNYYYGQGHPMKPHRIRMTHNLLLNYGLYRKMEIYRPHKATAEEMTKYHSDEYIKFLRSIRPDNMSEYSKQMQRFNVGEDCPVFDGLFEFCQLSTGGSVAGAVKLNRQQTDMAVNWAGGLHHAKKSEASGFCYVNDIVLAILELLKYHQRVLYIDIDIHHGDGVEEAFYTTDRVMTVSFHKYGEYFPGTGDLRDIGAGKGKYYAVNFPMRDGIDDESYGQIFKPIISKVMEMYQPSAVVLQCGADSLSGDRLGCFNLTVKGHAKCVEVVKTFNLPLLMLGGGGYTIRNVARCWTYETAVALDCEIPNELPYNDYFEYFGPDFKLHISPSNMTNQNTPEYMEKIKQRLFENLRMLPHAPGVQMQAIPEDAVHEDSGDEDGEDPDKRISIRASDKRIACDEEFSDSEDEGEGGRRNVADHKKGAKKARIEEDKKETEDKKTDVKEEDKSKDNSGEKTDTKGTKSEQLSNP
Assay: HDAC activity assay, recombinant HDAC2
pIC50: −log10 of the molar value.
ASSAY READOUT: pIC50

[I] O=C(CCCCCNC(=O)c1c(-c2ccc(O)cc2)sc2cc(O)ccc12)NO
[II] O=C(CCCCn1cc(-c2ccc(C(=O)c3c(-c4ccc(O)cc4)sc4cc(O)ccc34)cc2)nn1)NO [15a]
Of I and II , whose reported pIC50 is numerically smaller? Let me know the label of the one you choose.
II
(II: 4.72, I: 5.61)

----------
Target: ERα (Homo sapiens, UniProt P03372)
Sequence (P03372 whole entry): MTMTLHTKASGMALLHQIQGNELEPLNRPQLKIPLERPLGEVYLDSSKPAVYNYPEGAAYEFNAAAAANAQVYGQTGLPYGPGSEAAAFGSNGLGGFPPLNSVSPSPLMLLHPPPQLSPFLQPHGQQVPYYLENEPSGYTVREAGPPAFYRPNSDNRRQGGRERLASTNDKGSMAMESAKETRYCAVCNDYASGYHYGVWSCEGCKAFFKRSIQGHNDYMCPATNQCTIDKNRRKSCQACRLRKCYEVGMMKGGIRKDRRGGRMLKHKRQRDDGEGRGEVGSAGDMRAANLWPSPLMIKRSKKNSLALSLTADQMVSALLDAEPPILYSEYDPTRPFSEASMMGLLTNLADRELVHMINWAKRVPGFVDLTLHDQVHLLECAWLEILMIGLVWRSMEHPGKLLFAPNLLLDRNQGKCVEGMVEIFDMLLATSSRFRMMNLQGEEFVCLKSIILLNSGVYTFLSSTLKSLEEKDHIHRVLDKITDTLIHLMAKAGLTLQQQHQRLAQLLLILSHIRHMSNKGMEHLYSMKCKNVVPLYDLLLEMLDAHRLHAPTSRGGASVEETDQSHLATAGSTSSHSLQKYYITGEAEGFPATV
Test: Ishikawa alkaline phosphatase assay
ASSAY READOUT: pIC50
Please keep in mind that pIC50 is minus log10 of the molar concentration; only the number is needed.

Output measured pIC50 for this item: O=C(CCCCCn1cc(-c2ccc(C(=O)c3c(-c4ccc(O)cc4)sc4cc(O)ccc34)cc2)nn1)NO [15b]
5.54

Where these numbers come from: paper PMC3962780
